- target-under-test: T1, human fibroblast activation protein (hFAP) (human, UniProt Q12884 26-760, limits assumed)
- T1 construct: Recombinant soluble protein; also called human FAP; rhFAP
- T1 sequence (Q12884 26-760 limits assumed): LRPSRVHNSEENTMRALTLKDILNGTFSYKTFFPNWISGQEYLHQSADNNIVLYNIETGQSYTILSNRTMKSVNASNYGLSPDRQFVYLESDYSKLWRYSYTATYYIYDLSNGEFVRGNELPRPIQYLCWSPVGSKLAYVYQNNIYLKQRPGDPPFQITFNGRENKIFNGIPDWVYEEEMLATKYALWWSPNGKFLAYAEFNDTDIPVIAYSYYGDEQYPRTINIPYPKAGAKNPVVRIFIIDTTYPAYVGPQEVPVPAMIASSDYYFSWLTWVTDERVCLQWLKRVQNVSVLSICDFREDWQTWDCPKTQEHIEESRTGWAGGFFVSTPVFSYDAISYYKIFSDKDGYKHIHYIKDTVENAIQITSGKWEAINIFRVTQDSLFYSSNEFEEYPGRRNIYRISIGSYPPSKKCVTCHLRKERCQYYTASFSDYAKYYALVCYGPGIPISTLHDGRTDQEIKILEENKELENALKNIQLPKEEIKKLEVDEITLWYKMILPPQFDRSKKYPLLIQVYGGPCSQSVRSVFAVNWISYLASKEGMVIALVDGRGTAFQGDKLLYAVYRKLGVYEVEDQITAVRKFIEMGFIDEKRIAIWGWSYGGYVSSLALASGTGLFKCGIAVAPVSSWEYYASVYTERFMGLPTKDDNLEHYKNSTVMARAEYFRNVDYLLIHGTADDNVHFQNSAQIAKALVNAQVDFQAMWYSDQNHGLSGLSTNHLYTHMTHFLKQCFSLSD
- procedure-details: SPR (ProteOn XPR36), hFAP immobilised on GLC chip, construct as analyte
Catalogue of Kd values

{"columns": ["binder", "Kd"],
 "data": [
  ["bispecific construct #48 (designed binder, 56 is used; also called FAP-4-1BB bispecific construct #48) MRGSHHHHHHGSDLGEKLLVAALYGQDDEVRILLAAGADVNAKDQWGLTPLHKAALQGHLEIVEVLLKAGADVNAKDERGHTPLHWAARFGHLEIVEVLLKAGADVNAQDQKGYTPADLAALWGHEDIAEVLQKAAGSPTPTPTTPTPTPTTPTPTPTGSDLGKKLLEAARAGQDDEVRELLKAGADVNAKDQEHGSTPLHLAANYGHLEIVEVLLKAGADVNAKNWWGNTPLHLAAVYGHLEIVEVLLKAGADVNAKDNHGHTPLHLAAWYGHLEIVEVLLKAGADVNAQDKSGKTPADLAADAGHEDIAEVLQKAA", "0.17 nM"],
  ["bispecific construct #50 (designed binder, also called negative control construct #50) MRGSHHHHHHGSDLGEKLLVAALYGQDDEVRILLAAGADVNAKDQWGLTPLHKAALQGHLEIVEVLLKAGADVNAKDERGHTPLHWAARFGHLEIVEVLLKAGADVNAQDQKGYTPADLAALWGHEDIAEVLQKAAGSPTPTPTTPTPTPTTPTPTPTGSDLGKKLLEAARAGQDDEVRELLKAGADVNAKDKDGYTPLHLAAREGHLEIVEVLLKAGADVNAKDKDGYTPLHLAAREGHLEIVEVLLKAGADVNAQDKSGKTPADLAADAGHEDIAEVLQKAA", "0.22 nM"]
]}

src = patent US20240190999A1
